Quick reference: β2 Int Act of the listed items.
STUDY_TARGET: Adrenergic β2 (Homo sapiens)
Construct: Adherent H292 cells were removed from tissue culture flasks; endogenous in cells; host or cells: H292 cells
Sequence (P07550 whole entry): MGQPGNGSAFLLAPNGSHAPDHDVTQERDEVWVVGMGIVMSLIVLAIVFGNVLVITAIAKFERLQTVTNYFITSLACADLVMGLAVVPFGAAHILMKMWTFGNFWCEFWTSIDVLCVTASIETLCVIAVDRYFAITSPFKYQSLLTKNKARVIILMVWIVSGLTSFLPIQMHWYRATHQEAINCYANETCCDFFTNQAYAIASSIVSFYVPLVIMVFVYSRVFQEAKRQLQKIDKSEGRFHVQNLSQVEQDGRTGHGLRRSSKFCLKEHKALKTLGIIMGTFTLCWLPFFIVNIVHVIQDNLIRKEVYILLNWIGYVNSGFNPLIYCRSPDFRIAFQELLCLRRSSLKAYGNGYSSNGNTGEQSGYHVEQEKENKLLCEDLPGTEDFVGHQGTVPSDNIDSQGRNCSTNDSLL
ASSAY_PROCEDURE: Adrenergic β2 mediated cAMP production in H292 cells (AlphaScreen cAMP detection)
Type: cell-based
Parameters: key: fraction of formoterol maximum activity (formoterol = 1)
TEST_CONDITIONS: Intrinsic Activity as a fraction relative to the maximum activity determined for formoterol

COMPOUND: O=C1COc2c(CCNCCN(C(=O)CCNCCc3ccc(Cl)c(Cl)c3)C3CCCCC3)ccc(O)c2N1 [Example 30, bis(trifluoroacetate)]
RESULT: 0.92
//
COMPOUND: O=C1COc2c(CCNCCN(C(=O)CCNCCc3cc(F)cc(Cl)c3)C3CCCCC3)ccc(O)c2N1 [Example 41, (trifluoroacetate)]
RESULT: 0.95

Form field β2 Int Act, entry CCCC[C@@H](C)N(CCNCCc1ccc(O)c2c1OCC(=O)N2)C(=O)CCNCCc1cc(C)ccc1F [Example 56, bis(trifluoroacetate)] : 0.91
